Test system: Matricaria inodora
Procedure Text: Pre-emergence herbicidal efficacy, MATIN
Assay type: in vivo
Condition: application rate 320 g/ha, scored visually after about 3 weeks

{"Molecule": "Cc1ccc2c(c1)C(Nc1nc3n(n1)CCC(=O)N3C(C)C)CCC2 (stereo not shown)", "Assayed Target": "Matricaria inodora", "Endpoint Unit": "%", "Herbicidal efficacy against MATIN": 100}
{"Molecule": "Cc1ccc2c(c1)C(Nc1nc3n(n1)CCN(C(=O)c1cccc(C(F)(F)F)c1)C3)C(C)C2 (stereo not shown)", "Assayed Target": "Matricaria inodora", "Endpoint Unit": "%", "Herbicidal efficacy against MATIN": 80}
{"Molecule": "Cc1ccc2c(c1)C(Nc1nc3n(n1)CCN(C(=O)c1cccc(Cl)c1)C3)C(C)C2 (stereo not shown)", "Assayed Target": "Matricaria inodora", "Endpoint Unit": "%", "Herbicidal efficacy against MATIN": 90}
{"Molecule": "O=C1CCn2nc(NC3CCCc4ccccc43)nc2N1CC1CC1 (stereo not shown)", "Assayed Target": "Matricaria inodora", "Endpoint Unit": "%", "Herbicidal efficacy against MATIN": 100}
{"Molecule": "c1ccc2c(c1)CCCC2Nc1nc2n(n1)CCCS2 (racemic)", "Assayed Target": "Matricaria inodora", "Endpoint Unit": "%", "Herbicidal efficacy against MATIN": 100}
{"Molecule": "O=C(c1ccccc1)N1CCn2nc(N[C@@H]3CCCc4ccccc43)nc2C1", "Assayed Target": "Matricaria inodora", "Endpoint Unit": "%", "Herbicidal efficacy against MATIN": 90}
{"Molecule": "O=C1CCn2nc(NC3CCc4ccccc43)nc2N1CC1CC1 (stereo not shown)", "Assayed Target": "Matricaria inodora", "Endpoint Unit": "%", "Herbicidal efficacy against MATIN": 100}
{"Molecule": "O=C1CCn2nc(NC3CCCc4ccccc43)nc2N1CC1CCCCC1 (stereo not shown)", "Assayed Target": "Matricaria inodora", "Endpoint Unit": "%", "Herbicidal efficacy against MATIN": 90}
{"Molecule": "Cc1ccc2c(c1)[C@H](Nc1nc3n(n1)CCN(C(=O)c1cccc(C(F)(F)F)c1)C3)CCC2", "Assayed Target": "Matricaria inodora", "Endpoint Unit": "%", "Herbicidal efficacy against MATIN": 90}
{"Molecule": "Cc1ccc2c(c1)C(Nc1nc3n(n1)CCCN3S(=O)(=O)C1CC1)CCC2 (stereo not shown)", "Assayed Target": "Matricaria inodora", "Endpoint Unit": "%", "Herbicidal efficacy against MATIN": 100}
{"Molecule": "c1ccc2c(c1)CCCC2Nc1nc2n(n1)CCCCS2 (stereo not shown)", "Assayed Target": "Matricaria inodora", "Endpoint Unit": "%", "Herbicidal efficacy against MATIN": 100}
{"Molecule": "Cc1ccc2c(c1)[C@H](Nc1nc3n(n1)CCN(C(=O)c1ccccc1)C3)CC2", "Assayed Target": "Matricaria inodora", "Endpoint Unit": "%", "Herbicidal efficacy against MATIN": 90}
{"Molecule": "c1ccc2c(c1)OCCC2Nc1nc2n(n1)CCCCS2 (stereo not shown)", "Assayed Target": "Matricaria inodora", "Endpoint Unit": "%", "Herbicidal efficacy against MATIN": 100}
{"Molecule": "Cc1ccc2c(c1)[C@H](Nc1nc3n(n1)CCN(C(=O)c1ccc(Cl)cc1)C3)CCC2", "Assayed Target": "Matricaria inodora", "Endpoint Unit": "%", "Herbicidal efficacy against MATIN": 80}
{"Molecule": "CC(=O)N1CCCn2nc(NC3CCCc4ccc(C)cc43)nc21 (stereo not shown)", "Assayed Target": "Matricaria inodora", "Endpoint Unit": "%", "Herbicidal efficacy against MATIN": 100}
{"Molecule": "O=S(=O)(Cc1ccccc1)N1CCn2nc(NC3CCCc4ccccc43)nc2C1 (stereo not shown)", "Assayed Target": "Matricaria inodora", "Endpoint Unit": "%", "Herbicidal efficacy against MATIN": 70}
{"Molecule": "Cc1ccc2c(c1)[C@H](Nc1nc3n(n1)CCN(S(=O)(=O)Cc1ccccc1)C3)[C@@H](C)C2", "Assayed Target": "Matricaria inodora", "Endpoint Unit": "%", "Herbicidal efficacy against MATIN": 90}
{"Molecule": "Cc1ccc2c(c1)C(Nc1nc3n(n1)CCN(C(=O)c1ccccc1)C3)C(C)C2 (stereo not shown)", "Assayed Target": "Matricaria inodora", "Endpoint Unit": "%", "Herbicidal efficacy against MATIN": 90}
{"Molecule": "Cc1ccc2c(c1)[C@H](Nc1nc3n(n1)CCNC3)CCC2", "Assayed Target": "Matricaria inodora", "Endpoint Unit": "%", "Herbicidal efficacy against MATIN": 80}
{"Molecule": "Cc1ccc2c(c1)C(Nc1nc3n(n1)CCN(C(=O)c1ccccc1Cl)C3)C(C)C2 (stereo not shown)", "Assayed Target": "Matricaria inodora", "Endpoint Unit": "%", "Herbicidal efficacy against MATIN": 90}
{"Molecule": "O=S1(=O)CCCn2nc(NC3CCOc4ccccc43)nc21 (stereo not shown)", "Assayed Target": "Matricaria inodora", "Endpoint Unit": "%", "Herbicidal efficacy against MATIN": 100}
{"Molecule": "CC(=O)N1CCn2nc(N[C@@H]3CCc4ccccc43)nc2C1", "Assayed Target": "Matricaria inodora", "Endpoint Unit": "%", "Herbicidal efficacy against MATIN": 90}
{"Molecule": "Cc1ccc2c(c1)[C@H](Nc1nc3n(n1)CCN(C(=O)c1cccc(C(F)(F)F)c1)C3)CC2", "Assayed Target": "Matricaria inodora", "Endpoint Unit": "%", "Herbicidal efficacy against MATIN": 80}
{"Molecule": "CN1C(=O)CCn2nc(NC3CCCc4ccccc43)nc21 (stereo not shown)", "Assayed Target": "Matricaria inodora", "Endpoint Unit": "%", "Herbicidal efficacy against MATIN": 80}
{"Molecule": "Cc1ccc2c(c1)C(Nc1nc3n(n1)CCN(C(=O)C1CCCCC1)C3)C(C)C2 (stereo not shown)", "Assayed Target": "Matricaria inodora", "Endpoint Unit": "%", "Herbicidal efficacy against MATIN": 90}
{"Molecule": "O=S1(=O)CCCCn2nc(NC3CCCc4ccccc43)nc21 (stereo not shown)", "Assayed Target": "Matricaria inodora", "Endpoint Unit": "%", "Herbicidal efficacy against MATIN": 100}
{"Molecule": "Cc1ccc2c(c1)[C@H](Nc1nc3n(n1)CCN(S(=O)(=O)c1ccccc1Cl)C3)[C@@H](C)C2", "Assayed Target": "Matricaria inodora", "Endpoint Unit": "%", "Herbicidal efficacy against MATIN": 90}
{"Molecule": "CC(=O)N1CCn2nc(NC3CCOc4ccccc43)nc2C1 (stereo not shown)", "Assayed Target": "Matricaria inodora", "Endpoint Unit": "%", "Herbicidal efficacy against MATIN": 100}
{"Molecule": "Cc1ccc2c(c1)[C@H](Nc1nc3n(n1)CCN(C(=O)c1ccc(Cl)cc1)C3)CC2", "Assayed Target": "Matricaria inodora", "Endpoint Unit": "%", "Herbicidal efficacy against MATIN": 90}
{"Molecule": "c1ccc2c(c1)OCCC2Nc1nc2n(n1)CCCS2 (racemic)", "Assayed Target": "Matricaria inodora", "Endpoint Unit": "%", "Herbicidal efficacy against MATIN": 100}
{"Molecule": "CC(C)S(=O)(=O)N1CCn2nc(NC3CCCc4ccccc43)nc2C1 (stereo not shown)", "Assayed Target": "Matricaria inodora", "Endpoint Unit": "%", "Herbicidal efficacy against MATIN": 100}
{"Molecule": "O=C1CCn2nc(NC3CCc4ccccc43)nc2N1CC1CCCCC1 (stereo not shown)", "Assayed Target": "Matricaria inodora", "Endpoint Unit": "%", "Herbicidal efficacy against MATIN": 90}
{"Molecule": "Cc1ccc2c(c1)[C@H](Nc1nc3n(n1)CCN(C(=O)c1cccc(Cl)c1)C3)CCC2", "Assayed Target": "Matricaria inodora", "Endpoint Unit": "%", "Herbicidal efficacy against MATIN": 90}
{"Molecule": "Cc1ccc2c(c1)[C@H](Nc1nc3n(n1)CCN(C(=O)c1cccc(Cl)c1)C3)CC2", "Assayed Target": "Matricaria inodora", "Endpoint Unit": "%", "Herbicidal efficacy against MATIN": 70}
